biological target: human Cav3.2 T-type Ca2+ channel (Homo sapiens, UniProt O95180); construct: expressed in transfected cells; host or cells: KJMGER8 cells (Namalwa cell-derived cell line); assay: Inhibitory effect for intracellular calcium response via Cav3.2 T-type Ca2+ channels (FLIPR Calcium 3 Assay Kit); type: cell-based; settings: human Cav3.2-expressing KJMGER8 cells (Namalwa-derived); calcium response induced by 5 mmol/L CaCl2; normalised to 3 μmol/L mibefradil; read-out: IC50 for the human Cav3.2 T-type Ca2+ current
Sequence (O95180 whole entry): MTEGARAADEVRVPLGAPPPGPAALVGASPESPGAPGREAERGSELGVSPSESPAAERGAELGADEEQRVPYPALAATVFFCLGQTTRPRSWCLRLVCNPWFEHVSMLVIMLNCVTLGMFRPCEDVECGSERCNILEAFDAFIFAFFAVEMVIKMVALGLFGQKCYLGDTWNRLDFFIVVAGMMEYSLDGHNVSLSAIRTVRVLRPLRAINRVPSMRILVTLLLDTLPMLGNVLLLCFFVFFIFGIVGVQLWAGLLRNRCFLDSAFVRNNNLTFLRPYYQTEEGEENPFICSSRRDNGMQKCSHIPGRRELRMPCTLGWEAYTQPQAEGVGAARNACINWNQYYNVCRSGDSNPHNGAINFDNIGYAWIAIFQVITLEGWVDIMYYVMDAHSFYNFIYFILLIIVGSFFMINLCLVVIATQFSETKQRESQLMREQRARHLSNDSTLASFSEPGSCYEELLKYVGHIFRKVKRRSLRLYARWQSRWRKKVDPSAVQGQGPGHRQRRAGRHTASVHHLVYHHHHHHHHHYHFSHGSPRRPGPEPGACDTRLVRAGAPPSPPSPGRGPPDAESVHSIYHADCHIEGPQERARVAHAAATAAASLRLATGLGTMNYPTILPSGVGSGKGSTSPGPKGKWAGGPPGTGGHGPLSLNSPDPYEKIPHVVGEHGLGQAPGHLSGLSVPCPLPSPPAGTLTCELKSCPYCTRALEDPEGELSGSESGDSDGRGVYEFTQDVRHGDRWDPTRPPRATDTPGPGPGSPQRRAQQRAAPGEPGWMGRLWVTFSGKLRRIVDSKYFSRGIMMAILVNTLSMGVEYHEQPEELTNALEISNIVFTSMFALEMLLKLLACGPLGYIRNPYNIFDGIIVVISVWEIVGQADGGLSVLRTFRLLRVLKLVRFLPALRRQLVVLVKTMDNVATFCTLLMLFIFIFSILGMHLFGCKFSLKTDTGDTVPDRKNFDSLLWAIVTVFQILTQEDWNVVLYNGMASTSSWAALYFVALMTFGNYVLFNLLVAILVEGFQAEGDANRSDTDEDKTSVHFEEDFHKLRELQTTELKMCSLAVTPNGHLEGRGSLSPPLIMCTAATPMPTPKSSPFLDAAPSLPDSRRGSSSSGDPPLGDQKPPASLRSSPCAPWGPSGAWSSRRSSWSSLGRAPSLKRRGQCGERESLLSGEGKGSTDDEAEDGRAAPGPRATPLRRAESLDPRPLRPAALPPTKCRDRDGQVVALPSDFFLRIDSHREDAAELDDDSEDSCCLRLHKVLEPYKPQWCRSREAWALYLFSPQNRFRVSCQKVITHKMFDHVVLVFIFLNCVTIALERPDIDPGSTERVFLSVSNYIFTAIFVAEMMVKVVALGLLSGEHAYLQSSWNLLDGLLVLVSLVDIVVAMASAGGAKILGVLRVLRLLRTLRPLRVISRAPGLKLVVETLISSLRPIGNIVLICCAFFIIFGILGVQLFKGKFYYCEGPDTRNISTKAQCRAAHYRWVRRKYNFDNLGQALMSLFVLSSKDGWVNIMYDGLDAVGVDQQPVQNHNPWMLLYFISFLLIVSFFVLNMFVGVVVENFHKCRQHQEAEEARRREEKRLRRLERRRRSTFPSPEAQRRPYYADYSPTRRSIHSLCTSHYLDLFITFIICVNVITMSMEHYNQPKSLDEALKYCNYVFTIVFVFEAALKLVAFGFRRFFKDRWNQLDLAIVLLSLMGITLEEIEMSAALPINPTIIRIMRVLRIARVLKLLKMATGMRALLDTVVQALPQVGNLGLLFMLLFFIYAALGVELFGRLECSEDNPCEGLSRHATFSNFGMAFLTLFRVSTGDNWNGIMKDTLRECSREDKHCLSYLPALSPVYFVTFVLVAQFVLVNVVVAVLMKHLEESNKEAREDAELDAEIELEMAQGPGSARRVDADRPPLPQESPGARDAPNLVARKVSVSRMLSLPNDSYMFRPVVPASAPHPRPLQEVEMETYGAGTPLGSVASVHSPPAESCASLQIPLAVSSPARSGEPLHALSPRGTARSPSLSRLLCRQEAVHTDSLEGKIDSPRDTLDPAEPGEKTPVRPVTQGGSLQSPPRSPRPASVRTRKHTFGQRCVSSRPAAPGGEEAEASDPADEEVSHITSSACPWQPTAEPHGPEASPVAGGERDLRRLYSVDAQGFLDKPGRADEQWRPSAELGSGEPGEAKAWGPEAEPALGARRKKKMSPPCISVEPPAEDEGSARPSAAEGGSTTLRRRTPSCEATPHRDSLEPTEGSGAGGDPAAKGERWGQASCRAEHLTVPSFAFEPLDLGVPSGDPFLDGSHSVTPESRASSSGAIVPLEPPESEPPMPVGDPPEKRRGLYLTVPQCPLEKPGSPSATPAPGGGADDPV
Property: IC50; scope: individual compounds

compound | IC50
CC(C)c1nc2cc(C(=O)Nc3ccccc3)c(Cl)cn2c1S(=O)(=O)Nc1ccccc1 [Compound 155] | < 100 nM
CC1(c2nc3cc(C(=O)NC4CCOCC4)c(Cl)cn3c2CC2CCC(F)(F)CC2)CC1 [Compound 114] | < 100 nM
CC(C)c1nc2cc(C(=O)Nc3ccccc3)ccn2c1S(=O)(=O)N(C)c1ccccc1 [Compound 132] | < 100 nM
CC(C)c1nc2cc(C(=O)NOCc3ccccc3)c(Cl)cn2c1S(=O)(=O)NC(C)(C)C [Compound 159] | < 100 nM
CC(C)c1nc2cc(C(=O)NC3CC(F)(F)C3)c(Cl)cn2c1S(=O)(=O)NC(C)(C)C [Compound 158] | < 100 nM
Cc1cc(-c2nc3ccccc3[nH]2)cc2nc(C(F)(F)F)c(CC3CCC(F)(F)CC3)n12 [Compound 127] | < 100 nM
Cc1cc(NC(=O)c2cc3nc(C(C)C)c(S(=O)(=O)N4CC(F)(F)C4)n3cc2Cl)on1 [Compound 148] | < 100 nM
Cc1cc(C(=O)NCC2COCCOC2)cc2nc(C(F)(F)F)c(CC3CCC(F)(F)CC3)n12 [Compound 93] | < 100 nM
O=C(NOC1CCOCC1)c1cc2nc(C(F)(F)F)c(CC3CCC(F)(F)CC3)n2cc1Cl [Compound 181] | < 100 nM

====

molecular target: human Cav3.2 T-type Ca2+ channel (Homo sapiens); construct: expressed in transfected cells; host or cells: KJMGER8 cells (Namalwa cell-derived cell line); assay: Inhibitory effect for intracellular calcium response via Cav3.2 T-type Ca2+ channels (FLIPR Calcium 3 Assay Kit); assay type: cell-based; settings: human Cav3.2-expressing KJMGER8 cells (Namalwa-derived); calcium response induced by 5 mmol/L CaCl2; normalised to 3 μmol/L mibefradil; read-out: IC50 for the human Cav3.2 T-type Ca2+ current
Property: IC50; scope: individual compounds

compound | IC50
CC(C)c1nc2cc(C(=O)Nc3ccccc3N)c(Cl)cn2c1S(=O)(=O)N1CC(F)(F)C1 [Compound 149] | < 100 nM
CC(C)c1nc2cc(C(=O)Nc3ccccc3)ccn2c1S(=O)(=O)N1CC(F)(F)C1 [Compound 133] | < 100 nM
CC(C)c1nc2cc(C(=O)Nc3ccccc3)c(Cl)cn2c1S(=O)(=O)NC1CC(F)(F)C1 [Compound 154] | < 100 nM
CC(C)c1nc2cc(-c3nc4ccccc4[nH]3)c(Cl)cn2c1S(=O)(=O)N1CC(F)(F)C1 [Compound 170] | < 100 nM
CC(C)c1nc2cc(C(=O)Nc3ccccc3)ccn2c1S(=O)(=O)NC(C1CC1)C1CC1 [Compound 129] | < 100 nM
C=Cc1cn2c(CC3CCC(F)(F)CC3)c(C(F)(F)F)nc2cc1C(=O)Nc1ccccc1 [Compound 120] | < 100 nM
CC(C)c1nc2cc(C(=O)NOCc3ccccc3)c(Cl)cn2c1S(=O)(=O)N1CC(F)(F)C1 [Compound 152] | < 100 nM
Cc1cn2c(S(=O)(=O)C3CCCCC3)c(C(C)C)nc2cc1C(=O)Nc1ccccc1 [Compound 163] | < 100 nM
CC(C)c1nc2cc(NC(=O)C3CCCCC3)ncn2c1S(=O)(=O)N1CCC(F)(F)CC1 [Compound 175] | < 100 nM
CCC1(CNC(=O)c2ccn3c(CC4CCC(F)(F)CC4)c(C(F)(F)F)nc3c2)COC1 [Compound 56] | < 100 nM
Cc1cc(C(=O)NC2CCCOC2)cc2nc(C(F)(F)F)c(CC3CCC(F)(F)CC3)n12 (stereo not shown) [Compound 76] | < 100 nM
CC(C)c1nc2cc(C(=O)Nc3ccncc3)ccn2c1COC1CCCCC1 [Compound 24] | < 100 nM
O=C(Nc1ccccc1)c1cc2nc(C(F)(F)F)c(CC3CCC(F)(F)CC3)n2cc1Cl [Compound 107] | < 100 nM
CS(=O)(=O)c1nc2cc(C(=O)Nc3ccccc3)ccn2c1S(=O)(=O)N1CCC(F)(F)CC1 [Compound 143] | < 100 nM
CC(C)c1nc2cc(-c3nc4ccccc4[nH]3)ccn2c1COC1CCCCC1 [Compound 33] | < 100 nM
Cc1cc(NC(=O)c2cc3nc(C(C)C)c(S(=O)(=O)NC(C)(C)C)n3cc2Cl)on1 [Compound 157] | < 100 nM
